Data provenance: patent US12369579B2

System: H. pylori
MEASUREMENT NOTES: MBC by plating broth culture from the MIC assay onto Müller-Hinton agar
Format: cell-based
EXPERIMENTAL CONDITIONS: Helicobacter pylori, 72 h
PROPERTY NAME: MBC (µg/mL)

INSERT INTO assay_data (compound, unit_info, reported) VALUES
  ('CCOP(=O)(N/N=C/c1ccc([N+](=O)[O-])o1)Nc1ccc2c(c1)OCO2 (stereo not drawn)', 'µg/mL', 2),
  ('CCOP(=O)(N/N=C1\CCCc2oc([N+](=O)[O-])cc21)Nc1ccccc1 (stereo not drawn)', 'µg/mL', 0.25),
  ('CCOP(=O)(N/N=C/c1ccc([N+](=O)[O-])o1)Nc1ccc(OC)cc1 (stereo not drawn)', 'µg/mL', 2),
  ('CCOP(=O)(N/N=C/c1ccc([N+](=O)[O-])o1)Nc1ccc(Cl)cc1 (stereo not drawn)', 'µg/mL', 1),
  ('CCOP(=O)(N/N=C/c1ccc([N+](=O)[O-])o1)Nc1ccc(C)cc1 (stereo not drawn)', 'µg/mL', 2),
  ('O=[N+]([O-])c1ccc(/C=N/N=C/c2ccc([N+](=O)[O-])o2)o1', 'µg/mL', 4),
  ('CCOP(=O)(N/N=C/c1ccc([N+](=O)[O-])o1)Nc1ccc(Cl)c(Cl)c1 (stereo not drawn)', 'µg/mL', 1),
  ('CCOP(=O)(NCc1ccccc1)N/N=C/c1ccc([N+](=O)[O-])o1 (stereo not drawn)', 'µg/mL', 2),
  ('CCOP(=O)(N/N=C/c1ccc([N+](=O)[O-])o1)Nc1ccccc1 (stereo not drawn)', 'µg/mL', 2);
